EXPERIMENTAL TARGET: T1, receptor-binding domain (RBD) of the spike (S) protein of SARS-CoV-2 (SARS-CoV-2, UniProt P0DTC2 319-541)
T1 construct: also called soluble RBD
ASSAY: ELISA, coated RBD [cont'd]
REPORTED METRIC: EC50

**Query** Bench note: what EC50 did MnC4t2p1_B3 (antibody, V domains shown) VH: EVQLVESGGHLVQPGRSLRLSCAASGFTFDDYAMHWVRQVPGKGLEWVSGISWNGGILDYADSVKGRFTISRDNAKNSLYLHMRSLRTDDTALYYCAKDLRRQDYYADWYFDLWGRGTLVTVSS VL: DIQMIQSPSSVSASVGDRVTITCRASQGISSWLAWYQQKPGKAPKLLIYAASTLLSAVPSRFSGSGSGTDFTLTISSLQPEDFATYYCQQGNSFPFTFGPGTIVDV show?
**Result** < 100 µg/mL

Ref: patent US20210371503A1
